- Test protocol: Pharmacokinetics study in the rat, single oral dose
- Assay type: in vivo
- Details: Sprague-Dawley (Slc:SD), single oral 3 mg/kg, non-fasting, serum, n=3
Readout name: AUC(0-t) (µM·h)

Structure: O=C(NCCCOc1ccc2[nH]c(=O)ccc2c1)N(C1CC1)[C@@H]1CCCC[C@H]1O
Readout name: AUC(0-t)
Test value: 0.83

----------
- Test protocol: Pharmacokinetics study in the rat, single oral dose
- Type: in vivo
- Details: Sprague-Dawley, single oral 30 mg/kg, non-fasting, serum, n=3
Readout name: AUC(0-t) (µM·h)

Structure: O=C(NCCCOc1ccc2[nH]c(=O)ccc2c1)N(C1CC1)[C@@H]1CCCC[C@H]1O
Test value: 14.1
